The reported measurements were obtained from patent US20240343704A1.

The following molecules are listed with their measured IC50 values.
- system: Recombinant (1-346) HPK1 (h) (Homo sapiens, UniProt Q92918)
- Construct: Recombinant (1-346) HPK1 (h) is incubated with 8 mM MOPS pH 7.0
- Sequence (Q92918 1-346): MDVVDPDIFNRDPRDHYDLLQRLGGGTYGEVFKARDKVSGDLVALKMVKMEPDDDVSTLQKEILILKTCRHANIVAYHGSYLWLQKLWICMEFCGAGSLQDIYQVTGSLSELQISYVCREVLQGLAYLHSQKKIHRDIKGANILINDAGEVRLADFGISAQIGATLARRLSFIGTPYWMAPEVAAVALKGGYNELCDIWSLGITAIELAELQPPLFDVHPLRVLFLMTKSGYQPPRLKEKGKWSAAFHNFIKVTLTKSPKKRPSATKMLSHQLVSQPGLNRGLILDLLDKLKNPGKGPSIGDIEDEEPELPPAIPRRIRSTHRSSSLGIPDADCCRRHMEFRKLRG
- experiment-notes: HPK1 Human STE Kinase Enzymatic Radiometric Assay
- Format: biochemical
- experimental-conditions: read-out: HPK1 IC50 nM Range*

// below: answered molecules
COCCN1CCC(Oc2ccc(-c3cc(-c4cc5c(cc4F)C(=O)NCC5)c(N)nc3F)cc2C#N)CC1 :: 11 to 100 nM
CN(C)CC(=O)N1C[C@H]2C[C@@]2(c2ccc(-c3cc(-c4ccc5c(c4)CCNC5=O)c(N)nc3F)cc2)C1 :: 0.1 to 10 nM
Nc1nc(F)c(-c2ccc(OC3CCN(C4COC4)CC3)cc2)cc1-c1ccc2c(c1)CCNC2=O :: 11 to 100 nM
CN(Cc1cc(-c2cc(-c3ccc4c(c3)CCNC4=O)c(N)nc2F)ccc1N1CCOCC1)CC1CCCO1 (stereo not shown) :: 0.1 to 10 nM
CC(C)N1CCN(c2ccc(-c3cc(-c4ccc5c(c4)S(=O)(=O)CNC5=O)c(N)nc3F)cc2)CC1 :: 11 to 100 nM

## Input Report IC50 for Cc1nc2cc(-c3cc(-c4ccc(N5CCOCC5)c(CN(C)C)c4)c(F)nc3N)ccc2c(=O)[nH]1 please.
## Output 11 to 100 nM

## Input Looking for the measured IC50 of CN1C[C@@H]2C[C@]2(c2ccc(-c3cc(-c4ccc5c(c4)CCNC5=O)c(N)nc3F)cc2)C1 , can you help?
## Output 0.1 to 10 nM

## Input What value of IC50 has been reported for the following molecule? Nc1nc(F)c(-c2ccc([C@@]34C[C@@H]3CN(C3CCOCC3)C4)cc2)cc1-c1ccc2c(c1)CCNC2=O
## Output 0.1 to 10 nM
